Assignment: determine reported pIC50 for the given compounds.
molecular target: CDK2/CyclinE1 (Homo sapiens (Human)); assay: CDK2/CyclinE1 kinase inhibitory activity (Caliper mobility shift); conditions: read-out: CDK2/Cyclin El IC50
pIC50: −log10 of the molar value.

Some solved cases for reference:
N#Cc1cnc(Nc2ccc(S(N)(=O)=O)cc2)nc1OCC1CCC1    > 8.00
CS(=N)(=O)c1ccc(Nc2ncc(C#N)c(N3CCCCC3)n2)cc1 (stereo not shown)    7.00 to 8.00
CC1(COc2nc(Nc3ccc(S(N)(=O)=O)cc3)ncc2C#N)CCCC1    > 8.00
NS(=O)(=O)c1ccc(Nc2ncc(C(F)(F)F)c(OC3CCCCCC3O)n2)cc1 (single isomer, unassigned) [Example 118b]    > 8.00
CNS(=O)(=O)c1ccc(Nc2ncc(Br)c(OC3CCCC3O)n2)cc1 (single isomer, unassigned) [Example 142a]    > 8.00

Can you give me pIC50 for all of these, one by one?
1. N#Cc1cnc(Nc2ccc(S(N)(=O)=O)cc2)nc1OC1CCCC1CO (single isomer, unassigned) [Example 18a]
2. N#Cc1cnc(Nc2ccc(S(N)(=O)=O)cc2)nc1OCC1CCCC1O (single isomer, unassigned) [Example 19a]

7.00 to 8.00
> 8.00

====

biological target: CDK6/CyclinD1 (Homo sapiens (Human), UniProt Q00534); experiment: CDK6/CyclinD1 kinase inhibitory activity (Caliper mobility shift); details: read-out: CDK6/Cyclin D1 IC50
Sequence (Q00534 whole entry): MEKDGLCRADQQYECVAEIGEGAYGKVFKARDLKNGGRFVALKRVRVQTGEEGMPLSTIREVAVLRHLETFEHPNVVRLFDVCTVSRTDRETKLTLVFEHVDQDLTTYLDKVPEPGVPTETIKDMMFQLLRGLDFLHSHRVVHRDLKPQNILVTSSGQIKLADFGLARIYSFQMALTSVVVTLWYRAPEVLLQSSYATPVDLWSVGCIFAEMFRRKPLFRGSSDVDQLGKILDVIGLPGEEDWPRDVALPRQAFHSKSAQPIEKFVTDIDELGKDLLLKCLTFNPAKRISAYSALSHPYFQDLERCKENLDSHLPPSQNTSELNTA
Sequence (P24385 whole entry partner): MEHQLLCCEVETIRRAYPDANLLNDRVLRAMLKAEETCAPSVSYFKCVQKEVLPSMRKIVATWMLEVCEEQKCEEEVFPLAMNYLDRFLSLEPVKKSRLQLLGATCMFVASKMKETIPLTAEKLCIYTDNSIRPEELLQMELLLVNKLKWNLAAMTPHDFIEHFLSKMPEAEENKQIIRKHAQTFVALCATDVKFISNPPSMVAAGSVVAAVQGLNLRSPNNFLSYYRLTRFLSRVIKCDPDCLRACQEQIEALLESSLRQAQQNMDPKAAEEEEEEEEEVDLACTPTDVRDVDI
pIC50: −log10 of the molar value.
MEASUREMENT TYPE: pIC50

Some solved cases for reference:
[2H]C([2H])([2H])NS(=O)(=O)c1ccc(Nc2ncc(C(F)(F)F)c(OC3CCOCCC3O)n2)cc1 (single isomer, unassigned) [Example 102c]    6.00 to 7.00
CNS(=O)(=O)c1ccc(Nc2ncc(C(F)(F)F)c(O[C@H]3CCCOC[C@H]3O)n2)cc1 (single isomer, unassigned) [Example 103b]    6.00 to 7.00

Now, please, on to the next compound.
Given the entry CC(C)NS(=O)(=O)c1ccc(Nc2ncc(C#N)c(OC3CCCC3(C)O)n2)cc1 (single isomer, unassigned) [Example 35a] , report its measured pIC50.
7.00 to 8.00

====

molecular target: CDK2/CyclinE1 (Homo sapiens (Human), UniProt P24941); assay: CDK2/CyclinE1 kinase inhibitory activity (Caliper mobility shift); details: read-out: CDK2/Cyclin El IC50
MEASUREMENT TYPE: IC50

[2H]C([2H])([2H])NS(=O)(=O)c1ccc(Nc2ncc(C#N)c(OC3CCCOCC3)n2)cc1 (single isomer, unassigned) [Example 33b]    < 10 nM
[2H]C([2H])([2H])NS(=O)(=O)c1ccc(Nc2ncc(CC)c(OC3COCCC3(C)O)n2)cc1 (single isomer, unassigned) [Example 153b]    10 to 100 nM
Cn1cnc(S(=O)(=O)N2CCC(Nc3ncc(C#N)c(OC4CCCC4(C)O)n3)CC2)n1 (single isomer, unassigned) [Example 51b]    10 to 100 nM
Cn1cc(S(=O)(=O)N2CCC(Nc3ncc(Br)c(OC4CCCCC4O)n3)CC2)cn1 (single isomer, unassigned) [Example 144b]    < 10 nM
O=S(=O)(NC1CCOCC1)c1ccc(Nc2ncc(Cl)c(O[C@@H]3CCC[C@@H]3O)n2)cc1 (single isomer, unassigned) [Example 130b]    10 to 100 nM
CC1(O)CCCC1Oc1nc(NC2CCN(S(=O)(=O)CC3CC3)CC2)ncc1C#N (single isomer, unassigned) [Example 38b]    10 to 100 nM

Can you give me IC50 for all of these, one by one?
1. CC1CCCC(O)C1Oc1nc(Nc2ccc(S(N)(=O)=O)cc2)ncc1C(F)(F)F (single isomer, unassigned) [Example 112a]
2. CC1(O)COCCC1Oc1nc(NC2CCN(S(C)(=O)=O)CC2)ncc1C(F)(F)F (single isomer, unassigned) [Example 124a]
3. [2H]C([2H])([2H])NS(=O)(=O)c1ccc(Nc2ncc(CC)c(OC3CCCC3O)n2)cc1 (single isomer, unassigned) [Example 149a]
4. CO[C@H]1C[C@](C)(COc2nc(NC3CCN(S(=O)(=O)c4cnn(C)c4)CC3)ncc2C#N)C1 [Example 64a]
5. CS(=O)(=O)N1CCC(Nc2ncc(C(F)(F)F)c(OC3CCCCC3O)n2)CC1 (single isomer, unassigned) [Example 120a]
6. C[C@]1(O)COC[C@H]1Oc1nc(NC2CCN(S(C)(=O)=O)CC2)ncc1C(F)(F)F (relative stereo) [Example 104b]
7. NS(=O)(=O)c1ccc(Nc2ncc(Cl)c(OC3CCCC3O)n2)cc1 (single isomer, unassigned) [Example 136b]

["< 10 nM", "< 10 nM", "< 10 nM", "< 10 nM", "< 10 nM", "10 to 100 nM", "< 10 nM"]

====

target: CDK6/CyclinD1 (Homo sapiens (Human), UniProt Q00534); assay: CDK6/CyclinD1 kinase inhibitory activity (Caliper mobility shift); conditions: read-out: CDK6/Cyclin D1 IC50
pIC50: −log10 of the molar value.
MEASUREMENT TYPE: pIC50

Some solved cases for reference:
CNS(=O)(=O)c1ccc(Nc2ncc(Cl)c(OC3CCCC3O)n2)cc1 (single isomer, unassigned) [Example 137a]    7.00 to 8.00
CC1(O)CC(F)(F)CC1Oc1nc(NC2CCN(S(=O)(=O)CC3CC3)CC2)ncc1C#N (single isomer, unassigned) [Example 44b]    > 8.00
CC1(COc2nc(Nc3ccc(S(N)(=O)=O)cc3)ncc2C#N)CCCC1    6.00 to 7.00
[2H]C([2H])([2H])NS(=O)(=O)c1ccc(Nc2ncc(C(F)(F)F)c(O[C@H]3CCOC[C@H]3O)n2)cc1 (single isomer, unassigned) [Example 100a]    6.00 to 7.00
Cn1cc(S(=O)(=O)N2CCC(Nc3ncc(C#N)c(OCC4(C)CC(F)(F)C4)n3)CC2)cn1    7.00 to 8.00

Can you give me pIC50 for all of these, one by one?
1. [2H]C([2H])([2H])NS(=O)(=O)c1ccc(Nc2ncc(CC)c(OC3CCOCC3O)n2)cc1 (single isomer, unassigned) [Example 151a]
2. N#Cc1cnc(Nc2ccc(S(=O)(=O)NC3CC(F)C3)cc2)nc1OC1CCCCC1O (single isomer, unassigned) [Example 31a]
3. [2H]C([2H])([2H])NS(=O)(=O)c1ccc(Nc2ncc(CC)c(OC3CCCC3O)n2)cc1 (single isomer, unassigned) [Example 149a]
4. Cn1cc(S(=O)(=O)N2CCC(Nc3ncc(C#N)c(OC4CCCC4(C)O)n3)CC2)cn1 (single isomer, unassigned) [Example 48b]
5. CC1(O)CCCC1Oc1nc(Nc2ccc(S(N)(=O)=O)cc2)ncc1C1CC1 (single isomer, unassigned) [Example 154a]

1. 6.00 to 7.00
2. 6.00 to 7.00
3. 6.00 to 7.00
4. 7.00 to 8.00
5. 7.00 to 8.00

Can you give me pIC50 for all of these, one by one?
1. N#Cc1cnc(Nc2ccc(S(N)(=O)=O)cc2)nc1OCC1CCC1
2. [2H]C([2H])([2H])NS(=O)(=O)c1ccc(Nc2ncc(C(=C)F)c(O[C@@H]3CCC[C@@H]3O)n2)cc1 (single isomer, unassigned) [Example 135a]
3. CC1(O)CCCC1Oc1nc(NC2CCN(S(=O)(=O)CC3CCOC3)CC2)ncc1C#N (single isomer, unassigned) [Example 40a]
4. CC1(O)CCCC1Oc1nc(NC2CCN(S(=O)(=O)CC(F)(F)F)CC2)ncc1C#N (single isomer, unassigned) [Example 43a]
5. CC1(O)CCC(F)(F)CC1Oc1nc(NC2CCN(S(C)(=O)=O)CC2)ncc1C#N (single isomer, unassigned) [Example 46b]
6. CC1(O)CCCC1Oc1nc(NC2CCN(S(=O)(=O)CC(F)(F)F)CC2)ncc1C#N (single isomer, unassigned) [Example 43b]
7. Cc1cnc(Nc2ccc(S(N)(=O)=O)cc2)nc1O[C@@H]1CCC[C@@H]1O (single isomer, unassigned) [Example 132a]
8. CC(C)NS(=O)(=O)c1ccc(Nc2ncc(Cl)c(OC3CCCC3O)n2)cc1 (single isomer, unassigned) [Example 138a]

1: 7.00 to 8.00; 2: 6.00 to 7.00; 3: > 8.00; 4: 7.00 to 8.00; 5: > 8.00; 6: 7.00 to 8.00; 7: 6.00 to 7.00; 8: 6.00 to 7.00

====

biological target: CDK7/CyclinH/MAT1 (Homo sapiens (Human), UniProt P50613); assay: CDK7/CyclinH/MAT1 kinase inhibitory activity (Caliper mobility shift)
Sequence (P50613 whole entry): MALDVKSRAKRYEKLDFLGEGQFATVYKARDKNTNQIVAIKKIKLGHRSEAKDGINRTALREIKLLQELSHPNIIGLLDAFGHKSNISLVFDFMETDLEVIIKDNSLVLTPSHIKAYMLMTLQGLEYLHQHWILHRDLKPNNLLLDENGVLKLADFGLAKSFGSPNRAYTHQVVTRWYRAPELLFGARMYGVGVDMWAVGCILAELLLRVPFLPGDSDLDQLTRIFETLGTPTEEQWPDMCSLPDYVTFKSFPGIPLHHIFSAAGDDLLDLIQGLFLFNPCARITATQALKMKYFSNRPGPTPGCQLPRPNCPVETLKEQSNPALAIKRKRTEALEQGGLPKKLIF
Sequence (P51946 whole entry partner): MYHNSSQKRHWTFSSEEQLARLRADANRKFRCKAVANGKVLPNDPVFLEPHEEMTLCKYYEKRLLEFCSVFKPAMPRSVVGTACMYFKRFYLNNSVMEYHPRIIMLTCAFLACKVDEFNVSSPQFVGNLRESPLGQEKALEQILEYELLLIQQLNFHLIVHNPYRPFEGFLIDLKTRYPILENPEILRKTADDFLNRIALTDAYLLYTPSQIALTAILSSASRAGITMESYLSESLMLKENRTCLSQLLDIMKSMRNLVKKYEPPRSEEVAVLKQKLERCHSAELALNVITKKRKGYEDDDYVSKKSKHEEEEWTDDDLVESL
Sequence (P51948 whole entry partner): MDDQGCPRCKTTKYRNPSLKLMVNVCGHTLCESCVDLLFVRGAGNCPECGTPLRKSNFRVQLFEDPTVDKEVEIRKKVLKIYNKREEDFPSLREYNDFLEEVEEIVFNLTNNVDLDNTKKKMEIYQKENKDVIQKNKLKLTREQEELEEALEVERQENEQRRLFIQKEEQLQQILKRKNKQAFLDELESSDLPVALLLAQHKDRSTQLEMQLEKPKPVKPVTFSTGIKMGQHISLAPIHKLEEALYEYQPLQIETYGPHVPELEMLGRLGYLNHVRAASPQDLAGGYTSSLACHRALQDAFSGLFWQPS
pIC50: −log10 of the molar value.
MEASUREMENT TYPE: pIC50

Some solved cases for reference:
C[C@H]1CCCCN1c1nc(Nc2ccc(S(N)(=O)=O)cc2)ncc1C#N    ≤ 6.00
C[C@@H]1CCCCN1c1nc(Nc2ccc(S(N)(=O)=O)cc2)ncc1C#N    6.00 to 7.00

Now, please, on to the next compound.
Given the entry NS(=O)(=O)N1CCC(Nc2ncc(C(F)(F)F)c(OC3CCCCCC3O)n2)CC1 (single isomer, unassigned) [Example 122b] , report its measured pIC50.
7.00 to 8.00
